# study target: FGFR2 (Homo sapiens (Human))
# Sequence (P21802 22-821): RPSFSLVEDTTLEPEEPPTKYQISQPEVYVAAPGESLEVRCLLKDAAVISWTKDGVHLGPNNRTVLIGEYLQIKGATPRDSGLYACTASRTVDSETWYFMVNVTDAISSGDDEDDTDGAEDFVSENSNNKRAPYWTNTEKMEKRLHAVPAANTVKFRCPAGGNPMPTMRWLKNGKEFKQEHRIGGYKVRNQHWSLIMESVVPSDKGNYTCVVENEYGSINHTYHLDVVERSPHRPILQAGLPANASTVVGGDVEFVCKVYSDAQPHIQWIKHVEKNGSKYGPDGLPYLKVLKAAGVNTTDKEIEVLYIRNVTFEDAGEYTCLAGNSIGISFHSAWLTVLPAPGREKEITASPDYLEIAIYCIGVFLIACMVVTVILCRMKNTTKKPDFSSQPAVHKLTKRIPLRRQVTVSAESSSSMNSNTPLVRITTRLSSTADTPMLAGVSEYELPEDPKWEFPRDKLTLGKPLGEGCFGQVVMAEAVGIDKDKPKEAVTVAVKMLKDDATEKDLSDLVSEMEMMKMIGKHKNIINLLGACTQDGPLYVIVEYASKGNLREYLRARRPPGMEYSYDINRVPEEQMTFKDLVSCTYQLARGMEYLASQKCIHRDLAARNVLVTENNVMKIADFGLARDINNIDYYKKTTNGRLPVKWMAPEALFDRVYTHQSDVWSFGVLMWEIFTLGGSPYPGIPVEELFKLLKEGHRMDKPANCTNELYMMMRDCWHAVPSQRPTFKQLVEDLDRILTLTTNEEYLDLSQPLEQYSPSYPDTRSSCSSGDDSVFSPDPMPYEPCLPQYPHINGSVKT
# assay overview: Biochemical FGFR2 Caliper assay
pIC50: −log10 of the molar value.
measure name: pIC50

pIC50 measured on C=CC(=O)N1C2COCC1C(c1c(-c3ccc(Oc4cccc(C)n4)cc3)c3c(N)ncnc3n1C)C2 (stereo not shown) [Example 812] = > 7.00

pIC50 measured on COC/C=C/c1cc(C)c(-c2c(-c3ccc(Oc4nccc(C)n4)c(F)c3)c3c(N)ncnc3n2C)cn1 [Example 1378] = 4.00 to 6.00

pIC50 measured on C=C(C)C(=O)Nc1ccc(-c2c(-c3ccc4nn[nH]c4c3)c3c(N)ncnc3n2C)cc1 [Example 1302] = 4.00 to 6.00

pIC50 measured on C#Cc1cc(C)c(-c2c(-c3ccc(Oc4nccc(C)n4)c(F)c3)c3c(N)ncnc3n2CCO)cn1 [Example 1245] = > 7.00

Source listed as patent US11780845B2.
